# Assay info: in vivo
# Experimental parameters: Wistar, rat, po, 10 mg/kg
Reported property: bioavailability
Please format your answer as a value with the unit trailing.

Qu. Please give the documented bioavailability of `O=C1c2nc3cccc(C(F)(F)F)c3n2CCN1CC1CCC1`
Ans. 67%

----------
# Assay info: in vivo
# Experimental parameters: Wistar, rat, brain/plasma, po, 10 mg/kg
Reported property: Kp
Give bare numbers.

Qu. Tell me measured Kp for `O=C1c2nc3cccc(C(F)(F)F)c3n2CCN1CC1CCC1` please.
Ans. 1.02

----------
# Assay info: in vivo
# Experimental parameters: Wistar, rat, po, 10 mg/kg
Reported property: half-life (min)
Numbers only, in min.

Qu. Quick one: give measured half-life for `O=C1c2nc3cccc(C(F)(F)F)c3n2CCN1CC1CCC1`
Ans. 54.6

----------
# Assay info: in vivo
# Experimental parameters: Wistar, rat, po, 10 mg/kg
Reported property: Cmax (ng/mL)
Give bare numbers, in ng/mL.

Qu. Report Cmax, nothing else, for this compound: `O=C1c2nc3cccc(C(F)(F)F)c3n2CCN1CC1CCC1`
Ans. 1360

----------
# Assay info: in vivo
# Experimental parameters: Wistar, rat, po, 10 mg/kg
Reported property: AUC(0-t) at 5 h (µg·h/mL)
Answers are plain numbers, in µg·h/mL.

Qu. Please indicate AUC(0-t) at 5 h recorded for `O=C1c2nc3cccc(C(F)(F)F)c3n2CCN1CC1CCC1`
Ans. 1.82

----------
# Assay info: in vivo
# Experimental parameters: Wistar, rat, iv, 3 mg/kg
Reported property: half-life (min)
Numbers only, in min.

Qu. Tell us which half-life value is on record for `O=C1c2nc3cccc(C(F)(F)F)c3n2CCN1CC1CCC1`
Ans. 15.6

Hey, just so you know, these numbers are from ChEMBL document CHEMBL5033994.
